target: human DGKζ (Homo sapiens); construct: TVMV protease cleavage site (C); Hexa-His (C); made in house; host or cells: Sf9 insect cells (baculovirus, Bac-to-Bac); test: DGKζ LIPGLO assay (extruded liposome substrate), in vitro DGK inhibition; assay type: biochemical; settings: DGKζ liposome (LIPGLO) assay; read-out: DGKz LIPGLO IC50
Sequence (Q13574 with tags, fused parts or gaps isoform Q13574-4): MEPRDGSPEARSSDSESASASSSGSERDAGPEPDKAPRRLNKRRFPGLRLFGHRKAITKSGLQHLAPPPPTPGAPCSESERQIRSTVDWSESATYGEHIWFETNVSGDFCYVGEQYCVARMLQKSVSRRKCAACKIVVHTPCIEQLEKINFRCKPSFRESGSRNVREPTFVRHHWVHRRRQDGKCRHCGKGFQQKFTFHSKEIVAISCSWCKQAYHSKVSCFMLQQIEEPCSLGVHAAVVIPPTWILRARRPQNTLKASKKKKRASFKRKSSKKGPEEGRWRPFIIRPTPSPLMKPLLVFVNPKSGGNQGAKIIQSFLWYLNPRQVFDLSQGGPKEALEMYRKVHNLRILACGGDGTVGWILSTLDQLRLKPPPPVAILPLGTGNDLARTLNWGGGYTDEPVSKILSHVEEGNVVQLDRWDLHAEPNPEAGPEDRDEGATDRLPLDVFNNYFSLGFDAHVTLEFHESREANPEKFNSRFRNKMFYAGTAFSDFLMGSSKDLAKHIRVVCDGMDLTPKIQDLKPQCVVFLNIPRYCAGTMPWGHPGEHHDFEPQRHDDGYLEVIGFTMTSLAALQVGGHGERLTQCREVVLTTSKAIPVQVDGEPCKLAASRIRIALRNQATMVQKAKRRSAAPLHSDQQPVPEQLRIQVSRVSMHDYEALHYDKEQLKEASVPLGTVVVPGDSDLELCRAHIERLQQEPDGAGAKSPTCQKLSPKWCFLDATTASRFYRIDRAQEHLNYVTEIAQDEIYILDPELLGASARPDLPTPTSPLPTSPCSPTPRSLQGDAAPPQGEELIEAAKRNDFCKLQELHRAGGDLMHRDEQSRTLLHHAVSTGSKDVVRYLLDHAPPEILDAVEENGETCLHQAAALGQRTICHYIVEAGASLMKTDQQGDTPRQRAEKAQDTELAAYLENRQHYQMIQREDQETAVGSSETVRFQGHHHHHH
In plain terms, low IC50, meaning strictly below 3000 nM, gives True, and everything else gives False.

Here's what some known entries look like.
- Molecule: "Cc1cc(C(c2ccc(F)cc2)N2C[C@H](C)N(c3c(C#N)c(=O)n(C)c4ccc(C#N)nc34)C[C@H]2C)no1 (single isomer, unassigned) [Example 865]"
  Class: "False"
- Molecule: "C[C@@H]1CN(c2c(C#N)c(=O)n(C)c3ccc(C#N)nc23)CCN1C(c1cccc(Cl)c1)c1ccc(F)cn1 (stereo partly drawn) [Example 926]"
  Class: "False"

Exercise: API: query returns whether the molecule falls strictly under 3000 nM in IC50. Query: C[C@@H]1CN(c2cc(=O)n(C)c3ccc(C#N)nc23)[C@@H](C)CN1C(c1ccc(F)cc1)c1nnc(C2CC2)s1 (stereo partly drawn) [Example 774]
Solution: True

Exercise: Same again, this time with C[C@@H]1CN(c2cc(=O)n(C)c3ccc(C#N)nc23)[C@@H](C)CN1C(c1ccc(F)cc1)c1nc(N2CCOCC2)no1 (stereo partly drawn) [Example 750]
Solution: True

Exercise: Same again, this time with C[C@@H]1CN(c2c(C#N)c(=O)n(C)c3ccc(C#N)nc23)[C@@H](C)CN1C(c1ccc(F)cc1)c1csc(C2CC2)n1 (single isomer, unassigned) [Example 858]
Solution: True

Exercise: Same again, this time with C[C@@H]1CN(c2c(C#N)c(=O)n(C)c3ccc(C#N)nc23)[C@@H](C)CN1C(c1ccc(F)cc1)c1ncccc1F (single isomer, unassigned) [Example 821]
Solution: False

Exercise: Same again, this time with Cc1cccc(CN2CCN(c3c(C#N)c(=O)n(C)c4ccc(C#N)nc34)C[C@H]2C)c1
Solution: True

Exercise: Same again, this time with C[C@@H]1CN(c2c(C#N)c(=O)n(C)c3ccc(C#N)nc23)[C@@H](C)CN1C(c1ccc(F)cc1)c1cc(C2CC2)on1 (single isomer, unassigned) [Example 868]
Solution: True
